growth for assorted compounds
- System: OVCAR-4 ovarian
- Procedure details: NCI-60 one-dose screen, 48 h (100 = growth as untreated, 0 = no growth, -100 = all killed)
- Experimental parameters: 10 µM unless noted
The panel holds about 83,000 compounds, 20% with a hit somewhere; the sample as a whole holds those more often.
Provide only the numeric value, understood in %.

Query: # get_value(readout='growth', item= C=C1C(=O)O[C@H]2[C@H]1CC/C(COC(=O)NCc1ccc(Cn3c(=O)sn(-c4ccc(I)cc4)c3=O)cc1)=C\CC[C@@]1(C)O[C@@H]21 )
Result: 58.9

Continuing:
Query: # get_value(readout='growth', item= COc1ccc(C(c2cc(OC)c(OC)c(OC)c2)N2CCCCC2)cc1 (stereo not drawn) )
Result: 69.2

----------
- System: IGROV1 ovarian
- Procedure details: NCI-60 one-dose screen, 48 h (100 = growth as untreated, 0 = no growth, -100 = all killed)
- Experimental parameters: 10 µM unless noted
The panel holds about 83,000 compounds, 20% with a hit somewhere; the sample as a whole holds those more often.
Outcome measure: growth (%)
Provide only the numeric value, understood in %.

Query: # get_value(readout='growth', item= COc1ccc(Cl)cc1Nc1nc(C(F)(F)F)ccc1C(=O)N/N=C/c1ccc([N+](=O)[O-])cc1 )
Result: -0.273

Continuing:
Query: # get_value(readout='growth', item= COc1cccc(CNc2c3ccccc3nc3ccccc23)c1OC )
Result: 23.2

Query: # get_value(readout='growth', item= COC(=O)c1c2c(c[n+]([O-])c1C)C(=O)C=C(NCc1ccccc1)C2=O )
Result: -66.9

Query: # get_value(readout='growth', item= CC1SC(c2ccccc2O)N(NC(=O)CCC(=O)c2nc3ncccc3[nH]2)C1=O (stereo not drawn) )
Result: 70.1

Query: # get_value(readout='growth', item= CCN(CC)C(=O)C1=C(C)NC(=O)NC1c1ccc2c(c1)OCO2 (stereo not drawn) )
Result: 99.6

Query: # get_value(readout='growth', item= FC(F)(F)c1[nH]ncc1-c1nc2ccc3[nH]ncc3c2c2c1CCCC2 )
Result: -8.57

Query: # get_value(readout='growth', item= c1cc(OCCN2CCCC2)ccc1CNc1ccc2nc(CCC3CCCCC3)[nH]c2c1 )
Result: 46.3

----------
- Tested on: UACC-257 melanoma
- Procedure details: NCI-60 one-dose screen, 48 h (100 = growth as untreated, 0 = no growth, -100 = all killed)
- Experimental parameters: 10 µM unless noted
This is part of a sample that, as a whole, favours compounds with a hit. Of some 83,000 tested, about 20% had one in any assay.
growth below 40% gives not satisfied; growth at or above it gives satisfied.

# example entries with known answers
Query: Determine whether this molecule has growth no lower than 40%: Oc1ccc(-c2nc3ccc4[nH]ncc4c3c3c2CCCC3)c(F)c1
Result: satisfied

Query: Determine whether this molecule has growth no lower than 40%: COc1ccc(Cl)cc1Nc1nc(C(F)(F)F)ccc1C(=O)N/N=C/c1ccc([N+](=O)[O-])cc1
Result: not satisfied

Query: Determine whether this molecule has growth no lower than 40%: CN(C)CCCC1(c2ccc(F)cc2)OCc2cc(-c3csc4ccccc34)ccc21 (stereo not given)
Result: not satisfied

Query: Determine whether this molecule has growth no lower than 40%: CCCN(CCSSCCNc1nc(N(C)O)nc(N(C)O)n1)c1nc(N(C)O)nc(N(C)O)n1
Result: not satisfied

Query: Determine whether this molecule has growth no lower than 40%: O=C(/C=C/c1ccccc1)N(C1CCCCC1)C1CCCCC1
Result: satisfied

Continuing:
Query: Determine whether this molecule has growth no lower than 40%: CCN(CC)CCOc1ccc(/C(=C(\C)Cc2ccc(OC)cc2)c2ccc(OC(=O)NCc3ccccc3)cc2)cc1
Result: not satisfied

----------
- Test system: KM12 colon
- Procedure details: NCI-60 one-dose screen, 48 h (100 = growth as untreated, 0 = no growth, -100 = all killed)
- Experimental parameters: 10 µM unless noted
This is part of a sample that, as a whole, favours compounds with a hit. Of some 83,000 tested, about 20% had one in any assay.
growth for assorted compounds
Provide only the numeric value, understood in %.

As a guide, the following entries are already answered.
Query: # get_value(readout='growth', item= Cc1cc(C)c2c(c1)N(C)c1ncnc(-n3c(C)nc4cc(C)ccc43)c1CC2C (centres undefined) )
Result: 38.7

Query: # get_value(readout='growth', item= NS(=O)(=O)c1ccc(C(=O)NN2C(=O)c3ccccc3C2=O)cc1 )
Result: 102

Query: # get_value(readout='growth', item= O=C(c1ccc(Br)cc1)C(Br)C(c1ccc(Cl)cc1)C(c1ccccc1)[N+](=O)[O-] (centres undefined) )
Result: 92.7

Query: # get_value(readout='growth', item= COc1ccc(C/C(C)=C(\c2ccc(O)cc2)c2ccc(OCCN3CCCCC3)cc2)cc1 )
Result: 91.1

Query: # get_value(readout='growth', item= Clc1ccc(Nc2ncc(Cc3cccc(Cl)c3Cl)s2)cc1 )
Result: 101

Query: # get_value(readout='growth', item= N=C(N)c1ccc(-c2ccc(-c3ccccc3)o2)o1 )
Result: 16.6

Query: # get_value(readout='growth', item= COC(=O)/C(CCC=C(C)C)=C1\[C@@H](OC(C)=O)C[C@@]2(C)[C@H]1C/C(=N/O)[C@H]1[C@@]3(C)CC/C(=N\O)[C@@H](C)[C@@H]3CC[C@@]12C )
Result: 103

Query: # get_value(readout='growth', item= O=c1c2ccccc2n(C[C@H]2CO2)c2ccccc12 )
Result: -16.4

Continuing:
Query: # get_value(readout='growth', item= COCCn1cc(-c2csc(-c3c[nH]c4ccc(F)cc34)n2)c2cccnc21 )
Result: 8.29

----------
- System: UACC-62 melanoma
- Procedure details: NCI-60 one-dose screen, 48 h (100 = growth as untreated, 0 = no growth, -100 = all killed)
- Experimental parameters: 10 µM unless noted
Compounds without any hit were thinned out: in the full panel of roughly 83,000, 20% have a hit.
Consider the cut-off 90%. If the recorded growth is strictly smaller, the label is Criterion met; if not, the label is Criterion not met.

Query: Criterion: growth strictly below 90%. Is it met by CC1(C)CC[C@]2(CO)CC[C@]3(C)[C@](O)([C@H](O)C[C@@H]4[C@@]5(C)CCCNC(C)(C)[C@@H]5CC[C@]43C)[C@@H]2C1 ?
Result: Criterion not met

Query: Criterion: growth strictly below 90%. Is it met by CC(C)C1C2=C(NCCN1C(=O)c1ccncc1)C(C)(C)N(Cc1ccccc1)C2=O (stereo unspecified) ?
Result: Criterion not met

Query: Criterion: growth strictly below 90%. Is it met by O=C(O)CC(C(=O)O)/C(=C\c1ccccc1)c1ccccc1 (stereo unspecified) ?
Result: Criterion not met

Continuing:
Query: Criterion: growth strictly below 90%. Is it met by Cc1cc(C(=O)CCCC(=O)c2cc(C)c(O)c(C)c2)cc(C)c1O ?
Result: Criterion not met

Query: Criterion: growth strictly below 90%. Is it met by Clc1ccc(-c2cc(-c3ccccc3)nc(N3CCN(CCCNc4ccnc5cc(Cl)ccc45)CC3)n2)cc1 ?
Result: Criterion met

Query: Criterion: growth strictly below 90%. Is it met by Cc1cccc(NC(=O)Cn2cc(CN3CCN(c4ccnc5cc(Cl)ccc45)CC3)nn2)c1 ?
Result: Criterion met

Query: Criterion: growth strictly below 90%. Is it met by O=C(/C=C/c1ccccc1)N(C1CCCCC1)C1CCCCC1 ?
Result: Criterion met

Query: Criterion: growth strictly below 90%. Is it met by C#CCOc1cccc(Nc2ncnc3c2ncn3C2CCN(C(=O)CCl)C2)c1 (stereo unspecified) ?
Result: Criterion met

Query: Criterion: growth strictly below 90%. Is it met by CC1=Nc2cnc(Nc3ccc(N4CCCCC4)cc3)nc2Nc2ccccc21 ?
Result: Criterion met

Query: Criterion: growth strictly below 90%. Is it met by O=CCCCOCc1ccccc1 ?
Result: Criterion not met

----------
- Test system: SW-620 colon
- Procedure details: NCI-60 one-dose screen, 48 h (100 = growth as untreated, 0 = no growth, -100 = all killed)
- Experimental parameters: 10 µM unless noted
About 83,000 compounds went through this panel and 20% of them were active in at least one assay; those are over-represented in the sample as a whole.
growth for assorted compounds
Provide only the numeric value, understood in %.

Query: # get_value(readout='growth', item= Nc1cc(Br)cc2c1[nH]c(=O)c1ccccc12 )
Result: 94.7

Continuing:
Query: # get_value(readout='growth', item= CCOC(=O)CC[C@H](NC(=O)c1ccc(N(C)Cc2cnc3nc(N)nc(N)c3n2)c2ccccc12)C(=O)OCC )
Result: 22

Query: # get_value(readout='growth', item= C=C(C)[C@@H]1CC[C@]2(C(=O)Nc3ccccn3)CC[C@]3(C)[C@H](CC[C@@H]4[C@@]5(C)CCCNC(C)(C)[C@@H]5CC[C@]43C)[C@@H]12 )
Result: -31.7

Query: # get_value(readout='growth', item= COCCn1cc(-c2csc(-c3c[nH]c4ccccc34)n2)c2cccnc21 )
Result: 30.7
